# targetOrTestSystem: HLA-A*03:01
# assayOverview: IEDB peptide-MHC binding, purified MHC/competitive/radioactivity; filed as Kd, often an IC50 or EC50 that approximates it; bounds were set here for any values at or beyond the usual limits of such assays
# assayConditions: source organism: Lymphocytic choriomeningitis virus (strain Armstrong)
parameterMeasured: Kd (nM)
Give just the numeric value; nM need not be written.

For reference, reported Kd for VCLALTNSMK stands at 42.4

---

# targetOrTestSystem: HLA-A*30:01
# assayOverview: IEDB peptide-MHC binding, purified MHC/competitive/radioactivity; filed as Kd, often an IC50 or EC50 that approximates it; bounds were set here for any values at or beyond the usual limits of such assays
# assayConditions: source organism: Mammarenavirus brazilense
parameterMeasured: pKd
A value of pKd is the negative decimal logarithm of a concentration given in moles per litre.

For reference, reported pKd for SSQRDTILK stands at 7.33

---

# targetOrTestSystem: HLA-B*57:01
# assayOverview: IEDB peptide-MHC binding, purified MHC/direct/fluorescence; filed as Kd, often an IC50 or EC50 that approximates it; bounds were set here for any values at or beyond the usual limits of such assays
# assayConditions: source organism: Lyssavirus rabies
pKd: −log10 of the molar value.
parameterMeasured: pKd

For reference, reported pKd for RQMKSGGRF stands at ≤ 4.70

---

# targetOrTestSystem: HLA-A*02:01
# assayOverview: IEDB peptide-MHC binding, purified MHC/direct/fluorescence; filed as Kd, often an IC50 or EC50 that approximates it; bounds were set here for any values at or beyond the usual limits of such assays
# assayConditions: source organism: Neisseria gonorrhoeae
parameterMeasured: Kd

For reference, reported Kd for GSDKQVVGQ stands at ≥ 20 µM

---

# targetOrTestSystem: HLA-B*57:01
# assayOverview: IEDB peptide-MHC binding, purified MHC/direct/fluorescence; filed as Kd, often an IC50 or EC50 that approximates it; bounds were set here for any values at or beyond the usual limits of such assays
# assayConditions: source organism: Rickettsia bellii OSU 85-389
pKd: −log10 of the molar value.
parameterMeasured: pKd

For reference, reported pKd for EDFEIFYNL stands at ≤ 4.70

---

# targetOrTestSystem: HLA-B*39:01
# assayOverview: IEDB peptide-MHC binding, purified MHC/direct/fluorescence; filed as Kd, often an IC50 or EC50 that approximates it; bounds were set here for any values at or beyond the usual limits of such assays
# assayConditions: source organism: Ebola virus - Gabon (1994-1997)
parameterMeasured: Kd

For reference, reported Kd for YFTFDLTAL stands at ≥ 20 µM

---

# targetOrTestSystem: HLA-B*58:01
# assayOverview: IEDB peptide-MHC binding, purified MHC/direct/fluorescence; filed as Kd, often an IC50 or EC50 that approximates it; bounds were set here for any values at or beyond the usual limits of such assays
# assayConditions: source organism: Haemophilus influenzae
parameterMeasured: pKd
A value of pKd is the negative decimal logarithm of a concentration given in moles per litre.

Entry RLFFIDWEY ; assay system HLA-B*58:01; pKd recorded at 6.72

---

# targetOrTestSystem: HLA-A*31:01
# assayOverview: IEDB peptide-MHC binding, purified MHC/direct/fluorescence; filed as Kd, often an IC50 or EC50 that approximates it; bounds were set here for any values at or beyond the usual limits of such assays
# assayConditions: source organism: Influenza A virus (A/Ck/HK/2133.1/2003(H5N1))
pKd: −log10 of the molar value.
parameterMeasured: pKd

For reference, reported pKd for SADPLASLL stands at ≤ 4.70

---

# targetOrTestSystem: HLA-A*02:19
# assayOverview: IEDB peptide-MHC binding, purified MHC/competitive/fluorescence; filed as Kd, often an IC50 or EC50 that approximates it; bounds were set here for any values at or beyond the usual limits of such assays
# assayConditions: source organism: Campylobacter jejuni subsp. jejuni NCTC 11168 = ATCC 700819
parameterMeasured: Kd

For reference, reported Kd for KGMKIQHFK stands at ≥ 20 µM

---

# targetOrTestSystem: HLA-B*15:42
# assayOverview: IEDB peptide-MHC binding, purified MHC/competitive/fluorescence; filed as Kd, often an IC50 or EC50 that approximates it; bounds were set here for any values at or beyond the usual limits of such assays
# assayConditions: source organism: Helicobacter pylori 26695
pKd: −log10 of the molar value.
parameterMeasured: pKd

Entry FPIQDFPII ; assay system HLA-B*15:42; pKd recorded at ≤ 5.30

---

# targetOrTestSystem: HLA-B*40:01
# assayOverview: IEDB peptide-MHC binding, purified MHC/direct/fluorescence; filed as Kd, often an IC50 or EC50 that approximates it; bounds were set here for any values at or beyond the usual limits of such assays
# assayConditions: source organism: Ebola virus - Gabon (1994-1997)
parameterMeasured: Kd

Entry YFTFDLTAL ; assay system HLA-B*40:01; Kd recorded at ≥ 20 µM

---

# targetOrTestSystem: HLA-A*01:01
# assayOverview: IEDB peptide-MHC binding, purified MHC/competitive/radioactivity; filed as Kd, often an IC50 or EC50 that approximates it; bounds were set here for any values at or beyond the usual limits of such assays
# assayConditions: source organism: Dengue virus 3 Singapore/8120/1995
parameterMeasured: Kd

For reference, reported Kd for ILPEEQDQNY stands at ≥ 38.7 µM

---

# targetOrTestSystem: HLA-B*08:01
# assayOverview: IEDB peptide-MHC binding, purified MHC/direct/fluorescence; filed as Kd, often an IC50 or EC50 that approximates it; bounds were set here for any values at or beyond the usual limits of such assays
# assayConditions: source organism: Influenza A virus (A/Duck/Shantou/2088/01(H9N2))
pKd: −log10 of the molar value.
parameterMeasured: pKd

For reference, reported pKd for EEMATKADY stands at ≤ 4.70

---

A collection of sequences and their measured pKd
# targetOrTestSystem: HLA-B*51:01
# assayOverview: IEDB peptide-MHC binding, purified MHC/competitive/radioactivity; filed as Kd, often an IC50 or EC50 that approximates it; bounds were set here for any values at or beyond the usual limits of such assays
# assayConditions: source organism: Dengue virus 2 Jamaica/1409/1983
A value of pKd is the negative decimal logarithm of a concentration given in moles per litre.

These solved cases illustrate the format of a correct answer.
For reference, reported pKd for MAAILAYTI stands at 8.00

For reference, reported pKd for FSLGVLGMAL stands at 5.41

For reference, reported pKd for FSRGNSLSGV stands at 4.95

Next:
For reference, reported pKd for EPPFGDSYI stands at 6.46

---

# targetOrTestSystem: HLA-A*32:01
# assayOverview: IEDB peptide-MHC binding, purified MHC/competitive/radioactivity; filed as Kd, often an IC50 or EC50 that approximates it; bounds were set here for any values at or beyond the usual limits of such assays
# assayConditions: source organism: Dengue virus 2 Jamaica/1409/1983
pKd: −log10 of the molar value.
parameterMeasured: pKd

For reference, reported pKd for FKGKTVWFVP stands at ≤ 4.16

---

# targetOrTestSystem: HLA-A*24:03
# assayOverview: IEDB peptide-MHC binding, purified MHC/direct/fluorescence; filed as Kd, often an IC50 or EC50 that approximates it; bounds were set here for any values at or beyond the usual limits of such assays
# assayConditions: source organism: Shigella sonnei Ss046
parameterMeasured: Kd

For reference, reported Kd for RYGWSGAVF stands at ≤ 1 nM

---

# targetOrTestSystem: HLA-A*01:01
# assayOverview: IEDB peptide-MHC binding, purified MHC/direct/fluorescence; filed as Kd, often an IC50 or EC50 that approximates it; bounds were set here for any values at or beyond the usual limits of such assays
# assayConditions: source organism: Vibrio parahaemolyticus
pKd: −log10 of the molar value.
A collection of sequences and their measured pKd

For reference, reported pKd for VQGYERIMY stands at ≤ 4.70

Next:
For reference, reported pKd for ILLRKGHVF stands at ≤ 4.70

---

# targetOrTestSystem: HLA-A*24:02
# assayOverview: IEDB peptide-MHC binding, purified MHC/competitive/fluorescence; bounds were set here for any values at or beyond the usual limits of such assays
# assayConditions: source organism: Vaccinia virus WR
A collection of sequences and their measured pIC50
A value of pIC50 is the negative decimal logarithm of a concentration given in moles per litre.

For reference, reported pIC50 for RFLVINRLG stands at 4.79

In the following, a different sequence is considered.
For reference, reported pIC50 for PKRSVMLIG stands at 4.42

---

# targetOrTestSystem: HLA-A*11:01
# assayOverview: IEDB peptide-MHC binding, purified MHC/competitive/fluorescence; filed as Kd, often an IC50 or EC50 that approximates it; bounds were set here for any values at or beyond the usual limits of such assays
# assayConditions: source organism: Campylobacter jejuni subsp. jejuni NCTC 11168 = ATCC 700819
pKd: −log10 of the molar value.
parameterMeasured: pKd

For reference, reported pKd for AKYEICLEK stands at ≤ 4.70
